- TARGET DESC: DNA polymerase eta (Homo sapiens)
- TEST: qHTS for Inhibitors of Polymerase Eta
- EXPERIMENTAL SETUP: recombinant Pol eta, fluorescent DNA replication assay; series mostly up to 114 µM
The whole screen tested about 390,000 compounds, of which about 4,700 (1.2%) were called active. Inconclusive results (about 4%) are left out. Calls follow the shape of the dose curve; as a rule, active = well fitted inhibition curve with a large enough effect; inconclusive = small, poorly fitted or top-dose-only effect, or another doubt; inactive = no such curve, though single readings can be large or run the other way. The list comes from a sample in which actives are over-represented; it also holds close analogues and randomly drawn compounds.
Classes used: true = active, false = inactive

* CCC(=O)N1CCc2cc(S(=O)(=O)NCCC(=O)Nc3cccc(C)c3C)ccc21 | false
* COc1ccc(Cn2ccnc2SCC(=O)NCc2ccco2)cc1 | false
* CCCn1c2ccccc2c2cnn(CC(=O)NCC3CCN(Cc4ccc(C)cc4)CC3)c(=O)c21 | false
* COc1ccc(C(=O)CSc2c(C(C)C)cnc3c2c(=O)n(C)c(=O)n3C)cc1 | false
* O=C(Nc1nnc(S(=O)(=O)N2CCOCC2)s1)c1cccc(Br)c1 | false
* CCOc1ccc(NC(=O)Cn2c(C)ccc(C#N)c2=O)cc1 | false
* Cc1ccccc1CSc1nc(-c2ccccc2)nc2c1Cc1c(CO)cnc(C)c1O2 | false
* CC1=C(C(=O)OCc2ccc(C)cc2)C(c2c(Cl)cccc2Cl)CC(=O)N1 (configuration not stated) | false
* CC(=O)c1ccc(NC(=O)CSc2nnc(NC(=O)Nc3ccccc3)s2)cc1 | false
* O=C(Nc1nnc(S(=O)(=O)N2CCCCCC2)s1)c1cccc(Br)c1 | false
* CN1CCN(C(=O)Cn2c(C(F)(F)F)nc3ccccc32)CC1 | false
* CCc1nn(CC(=O)N2CCN(CC)CC2)c(=O)c2cccn12 | false
* CCOc1ccc(NC(=O)c2ccc(CSc3nnnn3C)cc2)cc1 | false
* CCOC(=O)c1c(C)[nH]c(C)c1S(=O)(=O)N1CCCC(C(=O)NCc2ccccc2Cl)C1 (configuration not stated) | false
* O=C(CCc1nc(CN2CCN(S(=O)(=O)c3ccc(Cl)cc3)CC2)no1)N1CCCCC1 | false
* NS(=O)(=O)c1ccc2nc(NC(=O)COc3ccccc3)sc2c1 | false
* CCOC(=O)C1=C(c2ccc(OC)cc2)C(=O)c2ccccc2C1=O | true
* COc1ccccc1NC(=O)Cn1cnc2ccc(S(=O)(=O)N3CCC(C)CC3)cc2c1=O | false
* COCCN(Cc1ccco1)C(=O)Cn1ncc2c([nH]c3ccccc32)c1=O | false
* COc1ccc(OCCCC(=O)Nc2nnc(C3CCCO3)s2)cc1 (configuration not stated) | false
* Cc1csc2nc(COC(=O)c3ccccc3NC(=O)c3ccccc3Cl)cc(=O)n12 | false
* COc1cccc(NC(=O)N(Cc2cn(C)c3ccccc23)C2CCCCCC2)c1 | false
* CN(C)S(=O)(=O)c1cccc(-c2nn(-c3ccccc3)cc2/C=C2\SC(=S)N(CC(=O)O)C2=O)c1 | true
* Cc1ccc(-c2nn(-c3ccccc3)cc2/C=C2\SC(=S)N(CCCCCC(=O)O)C2=O)o1 | true
* COc1ccc(/C=C/C(=O)c2cc(Br)ccc(=O)c2O)cc1 | true
* C/C(=N\Nc1cccc(C(=O)O)c1)c1ccc2c(c1)Nc1ccccc1S2 | true
* CCOc1ccccc1C1NC(=O)NC(C)=C1C(=O)OCc1ccco1 (configuration not stated) | false
* CC(NC(=O)CCc1cn(Cc2ccccc2Cl)c2ccccc12)c1ccccc1 (configuration not stated) | false
* CCC(=O)N1CCc2cc(CNS(=O)(=O)c3ccc(Br)s3)ccc21 | false
* CCN1C(=O)c2ccccc2Sc2ccc(NC(=O)Cc3ccc(OC)cc3)cc21 | false
* COc1ccc(CCNC(=O)c2ccc(CSCc3ccc(C)cc3)o2)cc1OC | false
* COCOc1cc(O)c(C(=O)/C=C/c2ccc(OCOC)c(OCOC)c2)c(OCOC)c1 | false
* COc1ccc(OCC(=O)Nc2nnc(-c3ccco3)s2)cc1 | true
* COc1ccc(NC(=O)COCc2cc(-c3ccco3)on2)cc1 | false
* CCOc1ccc(NC(=O)c2ccc(NC(=O)COC(=O)c3ccc(NC(=O)CC#N)cc3)cc2)cc1 | true
* CN(C(=O)CSc1nnc(NC(=O)Nc2ccccc2)s1)c1ccccc1 | false
* CCOC(=O)C1C(=O)C=C(c2ccc(OC)cc2)CC1c1ccco1 (configuration not stated) | false
* CC(NC(=O)c1cc2c(=O)n3ccccc3nc2n(C(C)C)c1=N)c1ccccc1 (configuration not stated) | false
* COc1ccc(-c2ccc(=O)n(CC(=O)Nc3ccc(Br)cc3F)n2)cc1 | false
* O=C(CSc1nc2nccnc2c(=O)n1CCc1c[nH]c2ccccc12)Nc1ccccc1F | false
* Cc1cc(O)c(C(=O)/C=C/c2c(F)c(F)c(F)c(F)c2F)c(=O)o1 | true
* CCOC(=O)C1=C(c2ccccc2)NC(=O)NC1c1cc(OC)c(OC)cc1OC (configuration not stated) | false
